Below are IC50 values recorded for BRG-1 (Homo sapiens, UniProt P51532).
measured property: IC50 (nM)

Before answering, review these 2 worked examples.
>>> df
                                   compound  measured_property  measured_number
0  O=C(NCc1cc2nc(N3CCOc4cc(C5CC5)cnc43)ccc2cn1)c1cc(Cl)c2c(c1)S(=O)(=O)[C@@H](F)CCO2 [Compound 216]               IC50              148
1  O=C(NCc1cc2nc(N3CCOc4cc(N5CC[C@H](F)C5)cnc43)ccc2cn1)c1cc(F)c2c(c1)S(=O)(=O)[C@@H](F)CCO2 [Compound 183]               IC50             89.9

(A) O=C(NCc1cc2nc(N3CCOc4cc(N5CCC5)cnc43)ccc2cn1)c1cc(F)c2c(c1)S(=O)(=O)[C@@H](F)CCO2 [Compound 190]
(B) Cn1ccc2c(-c3ccc4cnc(CNC(=O)c5cc(F)c6c(c5)S(=O)(=O)[C@@H](F)CCO6)cc4n3)cccc21 [Compound 191]
(C) C[C@@H]1CN(c2cncc(-c3ccc4cnc(CNC(=O)c5cc(F)c6c(c5)S(=O)(=O)[C@@H](F)CCO6)cc4c3)n2)C[C@H](C)O1 [Compound 19]
(D) O=C(NCc1cc2cc(-c3cncc(C4CCC4)n3)ccc2cn1)c1cc(F)c2c(c1)S(=O)(=O)[C@@H](F)CCO2 [Compound 283]
Provide the items ranked by increasing IC50. List each label, following the requested order.
C, B, A, D

###

Molecular target: BRM (Homo sapiens, UniProt P51531)
Construct: made in house; host or cells: High Five insect cells
Sequence (P51531 whole entry): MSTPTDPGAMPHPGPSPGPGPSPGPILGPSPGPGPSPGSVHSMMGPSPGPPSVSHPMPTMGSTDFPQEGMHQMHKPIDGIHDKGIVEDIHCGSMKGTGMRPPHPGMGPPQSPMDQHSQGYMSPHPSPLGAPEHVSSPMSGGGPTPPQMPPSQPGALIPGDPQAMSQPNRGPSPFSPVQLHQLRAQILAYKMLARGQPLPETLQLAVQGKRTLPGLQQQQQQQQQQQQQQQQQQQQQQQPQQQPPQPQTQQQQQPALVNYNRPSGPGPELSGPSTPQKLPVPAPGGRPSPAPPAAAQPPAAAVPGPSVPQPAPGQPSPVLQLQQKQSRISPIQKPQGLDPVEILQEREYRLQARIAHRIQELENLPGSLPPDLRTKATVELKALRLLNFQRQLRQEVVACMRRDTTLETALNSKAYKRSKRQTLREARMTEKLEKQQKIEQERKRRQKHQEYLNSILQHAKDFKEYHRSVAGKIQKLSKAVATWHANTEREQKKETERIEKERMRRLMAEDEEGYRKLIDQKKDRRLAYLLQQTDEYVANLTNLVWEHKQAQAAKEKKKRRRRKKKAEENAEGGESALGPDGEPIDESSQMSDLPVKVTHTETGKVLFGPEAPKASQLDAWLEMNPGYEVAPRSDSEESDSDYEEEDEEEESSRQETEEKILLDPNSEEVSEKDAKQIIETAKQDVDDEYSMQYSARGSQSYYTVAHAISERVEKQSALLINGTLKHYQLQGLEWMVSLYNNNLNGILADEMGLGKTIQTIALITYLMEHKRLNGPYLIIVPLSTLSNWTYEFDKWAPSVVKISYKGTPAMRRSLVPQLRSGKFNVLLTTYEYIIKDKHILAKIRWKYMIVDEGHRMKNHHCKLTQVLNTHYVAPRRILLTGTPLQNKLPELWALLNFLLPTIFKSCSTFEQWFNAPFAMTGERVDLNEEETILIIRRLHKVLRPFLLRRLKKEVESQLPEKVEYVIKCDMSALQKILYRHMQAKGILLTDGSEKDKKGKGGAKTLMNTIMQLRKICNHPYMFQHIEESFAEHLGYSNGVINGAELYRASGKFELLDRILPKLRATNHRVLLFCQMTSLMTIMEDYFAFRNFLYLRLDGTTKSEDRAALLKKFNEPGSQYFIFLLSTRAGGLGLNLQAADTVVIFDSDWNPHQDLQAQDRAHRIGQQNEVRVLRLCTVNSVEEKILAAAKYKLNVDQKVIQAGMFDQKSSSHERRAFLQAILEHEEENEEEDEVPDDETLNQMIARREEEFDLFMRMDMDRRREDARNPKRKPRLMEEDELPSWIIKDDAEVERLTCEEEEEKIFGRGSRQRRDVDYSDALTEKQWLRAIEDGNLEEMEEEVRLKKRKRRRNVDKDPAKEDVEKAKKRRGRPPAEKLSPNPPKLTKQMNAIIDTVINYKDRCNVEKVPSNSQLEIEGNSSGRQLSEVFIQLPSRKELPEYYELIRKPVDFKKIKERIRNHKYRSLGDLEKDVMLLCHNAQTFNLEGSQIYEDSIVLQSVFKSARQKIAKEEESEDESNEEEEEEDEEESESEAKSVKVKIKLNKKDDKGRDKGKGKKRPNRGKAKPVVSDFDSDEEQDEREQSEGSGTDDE
Test: ATPase catalytic activity assay (ADP-Glo), BRM
Format: biochemical
Details: ATPase assay, selectivity BRG1/BRM, Table 10
measured property: Ratio (BRG1 IC50 (μM) divided by BRM IC50 (μM))

In [3]: df
Out[3]:
                                   molecule  measured_number
0  CCN(CC)c1cnc2c(c1)OCCN2c1ccc2cnc(CNC(=O)c3cc(F)c4c(c3)S(=O)(=O)[C@@H](F)CCO4)cc2n1            12.19
1  CO[C@H]1CN(c2cccc(-c3ccc4cnc(CNC(=O)c5cc(F)c6c(c5)S(=O)(=O)[C@@H](F)CCO6)cc4n3)n2)C[C@@H]1C            17.37
2  COc1nc(C(C)(F)F)ccc1-c1ccc2cnc(CNC(=O)c3cc(F)c4c(c3)S(=O)(=O)[C@@H](F)COC4)cc2n1            26.00
3  COc1cnc2c(c1)CCCN2c1ccc2cnc(CNC(=O)c3cc(F)c4c(c3)S(=O)(=O)[C@@H](F)CCO4)cc2n1            18.45
4  CN(C)c1cnc2c(c1)OCCN2c1ccc2cnc(CNC(=O)c3cc(F)c4c(c3)S(=O)(=O)[C@@H](F)COC4)cc2n1            11.17

(A) O=C(NCc1cc2nc(N3CCOc4cc(OC(F)F)cnc43)ccc2cn1)c1cc(F)c2c(c1)S(=O)(=O)[C@@H](F)CCO2
(B) C[C@@H]1CN(c2cccc(-c3ccc4cnc(CNC(=O)c5ccc6c(c5)S(=O)(=O)[C@@H](F)CN(C)C6)cc4n3)n2)C[C@H](C)O1 [Compound 1]
(C) C[C@H]1C[C@@H]1c1ccc2c(n1)N(c1ccc3cnc(CNC(=O)c4cc(F)c5c(c4)S(=O)(=O)[C@@H](F)CCO5)cc3n1)CCO2
Provide the items ranked by increasing Ratio (BRG1 IC50 (μM) divided by BRM IC50 (μM)). List each label, following the requested order.
B, A, C

###

Test system: BRM-dependent transcription (BRG1 mutant lung cancer cell line A549)
Test: BRM-dependent transcription, MMTV luciferase reporter in BRG1 mutant A549 cells
Type: cell-based
Details: MMTV luciferase reporter cell lines, selectivity BRG1/BRM, Table 11
measured property: Ratio (MDA-MMTV IC50 (μM) divided by A549-MMTV IC50 (μM))

Before answering, review these 10 worked examples.
compound	measured number
COCCOc1nn(-c2ccc3cnc(CNC(=O)c4cc(Cl)c5c(c4)S(=O)(=O)[C@@H](F)COC5)cc3n2)cc1F	23.26
COc1nc(C(F)F)ccc1-c1ccc2cnc(CNC(=O)c3cc(Br)c4c(c3)S(=O)(=O)[C@@H](F)CCO4)cc2n1	24.82
[2H]C([2H])([2H])c1cc(C(=O)NCc2cc3nc(-c4cccc(N5C[C@@H](C)O[C@@H](C)C5)n4)ccc3cn2)cc2c1OCC[C@H](F)S2(=O)=O	27.74
O=C(NCc1cc2nc(-c3cccc(C4CC4)n3)ccc2cn1)c1ccc2c(c1)S(=O)(=O)[C@@H](F)CCOC2	22.21
O=C(NCc1cc2nc(-n3cc(F)c(OC4CC4)n3)ccc2cn1)c1cc(F)c2c(c1)S(=O)(=O)[C@@H](F)CCO2	23.22
[2H]C([2H])([2H])C([2H])([2H])Oc1ccc(-c2ccc3cnc(CNC(=O)c4cc(F)c5c(c4)S(=O)(=O)[C@@H](F)COC5)cc3n2)nc1[C@@H]1CC1(F)F	39.23
C[C@@H]1CN(c2cccc(-c3ccc4cnc(CNC(=O)c5cc(C#N)c6c(c5)S(=O)(=O)[C@@H](F)CCO6)cc4n3)n2)C[C@H](C)O1	21.84
CCOc1nc(C(F)F)ncc1-c1ccc2cnc(CNC(=O)c3cc(Cl)c4c(c3)S(=O)(=O)[C@@H](F)COC4)cc2n1	21.63
[2H]C1([2H])Oc2c(F)cc(C(=O)NCc3cc4nc(-c5ccc(OCC)c(C6CC6(F)F)n5)ccc4cn3)cc2S(=O)(=O)[C@@]([2H])(F)C1([2H])[2H] (stereo partly drawn)	54.50
CCOc1nc([C@@H](C)F)ccc1-c1ccc2cnc(CNC(=O)c3cc(F)c4c(c3)S(=O)(=O)[C@@H](F)CCO4)cc2n1	22.09

(P) COCc1ccc(-c2ccc3cnc(CNC(=O)c4cc(Cl)c5c(c4)S(=O)(=O)[C@@H](F)COC5)cc3n2)nc1C1CC1
(Q) Cc1cc(C(=O)NCc2cc3nc(-c4cccc(C5CC5)n4)ccc3cn2)cc2c1OCC[C@H](F)S2(=O)=O
Compare P and Q and name the one whose reported Ratio (MDA-MMTV IC50 (μM) divided by A549-MMTV IC50 (μM)) is smaller. Indicate your choice by writing its label.
P

###

Tested on: BRM-dependent transcription (BRG1 mutant lung cancer cell line A549)
Assay: BRM-dependent transcription, MMTV luciferase reporter in BRG1 mutant A549 cells
Assay type: cell-based
Conditions: MMTV luciferase reporter cell lines, selectivity BRG1/BRM, Table 11
measured property: Ratio (MDA-MMTV IC50 (μM) divided by A549-MMTV IC50 (μM))

Before answering, review these 3 worked examples.
molecule	measured number
[2H]C([2H])([2H])C([2H])([2H])Oc1ccc(-c2ccc3cnc(CNC(=O)c4cc(F)c5c(c4)S(=O)(=O)[C@@H](F)COC5)cc3n2)nc1C1CC1(F)F (some centres unmarked)	35.00
[2H]C([2H])([2H])C([2H])([2H])Oc1ccc(-c2ccc3cnc(CNC(=O)c4cc(C(F)F)c5c(c4)S(=O)(=O)[C@@H](F)COC5)cc3n2)nc1C1CC1(F)F (some centres unmarked)	53.01
O=C(NCc1cc2nc(-c3ccc([C@H](F)CF)c(C4CC4)n3)ccc2cn1)c1cc(F)c2c(c1)S(=O)(=O)[C@@H](F)CCO2	24.27

(A) [2H]C([2H])([2H])Oc1ccc(-c2ccc3cnc(CNC(=O)c4cc(C(F)F)c5c(c4)S(=O)(=O)[C@@H](F)COC5)cc3n2)nc1C1CC1(F)F (some centres unmarked)
(B) [2H]C([2H])([2H])Oc1nc([C@H](F)CF)ccc1-c1ccc2cnc(CNC(=O)c3cc(F)c4c(c3)S(=O)(=O)[C@@H](F)CCO4)cc2n1
When A and B are compared, which has the higher number for Ratio (MDA-MMTV IC50 (μM) divided by A549-MMTV IC50 (μM))? Indicate your choice by writing its label.
A
(A: 45.81, B: 24.90)

###

Biological target: BRM (Homo sapiens)
Construct: made in house; host or cells: High Five insect cells
Assay: ATPase catalytic activity assay (ADP-Glo), BRM
Format: biochemical
Details: ATPase assay, selectivity BRG1/BRM, Table 10
measured property: Ratio (BRG1 IC50 (μM) divided by BRM IC50 (μM))

In [3]: df
Out[3]:
                              smiles_record  measured_number
0  CO[C@H]1C[C@H]1c1cnc2c(c1)OCCN2c1ccc2cnc(CNC(=O)c3cc(F)c4c(c3)S(=O)(=O)[C@@H](F)CCO4)cc2n1            12.59

(I) COc1nc([C@@](C)(F)C(F)F)ccc1-c1ccc2cnc(CNC(=O)c3cc(F)c4c(c3)S(=O)(=O)[C@@H](F)COC4)cc2n1
(II) O=C(NCc1cc2nc(N3CCCc4c3ncc(F)c4OC3CC3)ccc2cn1)c1cc(F)c2c(c1)S(=O)(=O)[C@@H](F)CCO2
Compare I and II and name the one whose reported Ratio (BRG1 IC50 (μM) divided by BRM IC50 (μM)) is smaller. Indicate your choice by writing its label.
II
(II: 11.06, I: 15.83)
